assay_system: SARM1 (Homo sapiens, UniProt Q6SZW1)
Construct: made in house; host or cells: NRK1-HEK293T cells, transiently transfected; clarified lysate used unpurified
Sequence (Q6SZW1 with tags, fused parts or gaps): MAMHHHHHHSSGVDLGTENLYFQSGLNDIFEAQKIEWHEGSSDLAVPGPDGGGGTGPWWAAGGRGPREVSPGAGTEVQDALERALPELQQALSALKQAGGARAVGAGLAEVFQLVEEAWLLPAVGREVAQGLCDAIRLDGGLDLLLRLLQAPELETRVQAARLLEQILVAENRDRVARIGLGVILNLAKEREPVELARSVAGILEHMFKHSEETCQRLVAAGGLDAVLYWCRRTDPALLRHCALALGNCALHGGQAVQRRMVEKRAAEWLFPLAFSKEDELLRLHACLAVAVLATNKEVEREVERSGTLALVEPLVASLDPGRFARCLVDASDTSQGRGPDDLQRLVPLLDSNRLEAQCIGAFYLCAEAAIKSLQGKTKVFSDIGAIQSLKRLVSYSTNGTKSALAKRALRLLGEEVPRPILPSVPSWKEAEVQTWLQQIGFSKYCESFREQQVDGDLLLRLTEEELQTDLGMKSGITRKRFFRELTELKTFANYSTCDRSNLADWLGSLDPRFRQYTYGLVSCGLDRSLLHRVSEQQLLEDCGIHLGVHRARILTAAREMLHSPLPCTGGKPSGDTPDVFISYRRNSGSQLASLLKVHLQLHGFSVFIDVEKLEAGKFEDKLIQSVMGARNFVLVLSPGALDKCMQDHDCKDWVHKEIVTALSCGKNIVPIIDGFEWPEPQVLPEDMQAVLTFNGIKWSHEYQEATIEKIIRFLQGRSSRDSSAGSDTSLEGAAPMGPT
protocol_text: ARM-SAM-TIR SARM1 IC50 assay (NADase activity, NAD+ cleavage)
Type: biochemical
condition_notes: ARM-SAM-TIR lysate 5 μg/mL from NRK1-HEK293T cells; 2 h pre-incubation; 5 μM NAD+; 2 hr room temperature; NAD+ and ADPR by RapidFire MS; read-out: SARM1 IC50
Description: This Example describes an assay of ARM-SAM-TIR NADase activity and use of this assay to measure the efficacy of compounds of Formula I to block SARM1 mediated NAD+ cleavage. […] The cultures were supplemented with 1 mM NR at time of transfection to minimize toxicity from ARM-SAM-TIR overexpression. […] Protein concentration was determined by the Bicinchoninic (BCA) method and used to normalize lysate concentrations. […]
readout_name: IC50

// below: answered molecules
Incoming: Provide one value: measured IC50 of `CNc1cncc(OCc2ccccc2)n1`
Outgoing: 5 to 15 µM

Incoming: Provide one value: measured IC50 of `COc1cncc(NCc2cnn(C3CCN(S(C)(=O)=O)CC3)c2)n1`
Outgoing: 5 to 15 µM

Incoming: Provide one value: measured IC50 of `Cn1cc(CNc2cncc(C#N)n2)cn1`
Outgoing: > 30 µM

Incoming: Provide one value: measured IC50 of `CN(C)C(=O)c1cncc(NCc2cccnc2)n1`
Outgoing: > 30 µM

Incoming: Provide one value: measured IC50 of `CCNC(=O)n1cc(CNc2cncc(OC)n2)cn1`
Outgoing: 5 to 15 µM

Continuing:
Incoming: Provide one value: measured IC50 of `COc1cc(NCc2cccnc2)cc(=O)[nH]1`
Outgoing: > 30 µM

Data provenance: patent US12595252B2
